Measured pEC50, listed per entry.
- System Under Test: human mGlu4 (Homo sapiens (Human), UniProt Q14833)
- Sequence (Q14833 33-912): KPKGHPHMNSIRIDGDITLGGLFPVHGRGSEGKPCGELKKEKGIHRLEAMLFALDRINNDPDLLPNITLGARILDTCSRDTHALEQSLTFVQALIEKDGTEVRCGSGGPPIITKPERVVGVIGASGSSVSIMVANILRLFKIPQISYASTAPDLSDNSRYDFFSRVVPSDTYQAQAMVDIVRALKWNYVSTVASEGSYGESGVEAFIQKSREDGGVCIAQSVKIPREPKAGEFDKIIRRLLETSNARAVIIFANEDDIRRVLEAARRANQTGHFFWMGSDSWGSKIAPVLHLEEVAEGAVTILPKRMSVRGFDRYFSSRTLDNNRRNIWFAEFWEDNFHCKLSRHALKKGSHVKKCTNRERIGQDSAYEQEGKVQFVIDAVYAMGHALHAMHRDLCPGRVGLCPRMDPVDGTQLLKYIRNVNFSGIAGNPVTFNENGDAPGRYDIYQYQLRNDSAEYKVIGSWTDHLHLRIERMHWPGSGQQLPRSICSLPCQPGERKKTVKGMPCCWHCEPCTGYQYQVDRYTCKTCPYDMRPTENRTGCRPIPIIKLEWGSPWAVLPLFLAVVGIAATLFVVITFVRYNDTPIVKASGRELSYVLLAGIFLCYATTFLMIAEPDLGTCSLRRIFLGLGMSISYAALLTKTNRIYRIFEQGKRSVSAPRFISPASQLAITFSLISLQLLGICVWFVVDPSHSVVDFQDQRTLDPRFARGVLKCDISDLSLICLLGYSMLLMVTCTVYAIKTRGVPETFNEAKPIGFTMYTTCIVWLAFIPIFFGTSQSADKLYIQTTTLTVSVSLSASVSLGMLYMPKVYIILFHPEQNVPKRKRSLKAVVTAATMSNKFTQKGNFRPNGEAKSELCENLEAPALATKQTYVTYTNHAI
- Assay Comment: mGlu4 PAM assay in human mGlu4/Gqi5 cells with ~EC20 glutamate (Hamamatsu FDSS)
- Assay type: cell-based
- Reported Conditions: ~EC20 concentration of glutamate, read-out: hmGluR4 PAM EC50
pEC50: −log10 of the molar value.
Measurement Label: pEC50

compound=Cn1nc(C(=O)NC23CC(F)(C2)C3)c2ccc(NC(=O)c3ccccn3)cc21 value_reported=6.24
compound="Cn1nc(OC[C@H]2CCOC2)c2ncc(NC(=O)c3ncccc3N)cc21 [drawing 247]" value_reported=6.78
compound="Cn1nc(OC[C@@H]2COCCO2)c2ccc(NC(=O)c3ncccc3N)cc21 [drawing 248]" value_reported=7.30
compound="Cn1nc(OCC2CCOCC2)c2ncc(NC(=O)c3ccccn3)cc21 [drawing 243]" value_reported=6.40
compound="Cn1nc(OC[C@H]2COCCO2)c2ccc(NC(=O)c3ncccc3N)cc21 [drawing 249]" value_reported=7.23
compound="O=C(Nc1ccc2c(OCC3CCOC3)n[nH]c2c1)c1ccccn1 (stereo not drawn)" value_reported=6.44
compound="Cn1nc(OC[C@H]2CCOC2)c2ccc(NC(=O)c3ncccc3N)cc21 [drawing 245]" value_reported=7.62
compound=O=C(Nc1ccc2c(OC[C@@H]3CCOC3)n[nH]c2c1)c1ccccn1 value_reported=6.70
compound=Cn1nc(C(=O)NC2CC(F)(F)C2)c2ccc(NC(=O)c3ccc(F)cn3)cc21 value_reported=6.49
